The measurements presented in this section are drawn from patent US11807625B2.

Assay: PK of compound of Formula (Ia) after single subcutaneous dose of solution formulations in Wistar Han rats
Format: in vivo
Settings: male, Wistar Han, rat, plasma, sc, 50 mg/kg, mean ± SD, n = 3 rats; SC 50 mg/kg; solution R, 400 mg/mL; read-out: AUC0-3696h
valueKind: AUC(0-t)

Input: Need AUC(0-t), item CC(C)(C#Cc1ccc(-c2ccc(Cl)c3c(NS(C)(=O)=O)nn(CC(F)(F)F)c23)c([C@H](Cc2cc(F)cc(F)c2)NC(=O)Cn2nc(C(F)(F)F)c3c2C(F)(F)[C@@H]2C[C@H]32)n1)S(C)(=O)=O [compound of Formula (Ia)]
Output: 825 µM·h

###

Test: PK of compound of Formula (Ia) after single intramuscular dose of solution formulations in Wistar Han rats
Format: in vivo
Settings: male, Wistar Han, rat, plasma, intramuscular, 100 mg/kg, 1.00 h; mean, n = 4 rats; IM 100 mg/kg; solution M, 500 mg/mL; read-out: Plasma concentration
valueKind: concentration at 1 h (nM)
Just the number in nM, nothing appended.

Input: Need concentration at 1 h, item "CC(C)(C#Cc1ccc(-c2ccc(Cl)c3c(NS(C)(=O)=O)nn(CC(F)(F)F)c23)c([C@H](Cc2cc(F)cc(F)c2)NC(=O)Cn2nc(C(F)(F)F)c3c2C(F)(F)[C@@H]2C[C@H]32)n1)S(C)(=O)=O"
Output: 184

###

Assay: PK of compound of Formula (Ia) after single subcutaneous dose of solution formulations in Wistar Han rats
Type: in vivo
Details: male, Wistar Han, rat, plasma, sc, 50 mg/kg, Wistar Han rats, SC 50 mg/kg, 500 mg/mL solution X (5.00% ethanol, 1.91% poloxamer 188), 8.00 h, Mean n = 3
valueKind: concentration at 8 h (nM)
Just the number in nM, nothing appended.

Input: Need concentration at 8 h, item "CC(C)(C#Cc1ccc(-c2ccc(Cl)c3c(NS(C)(=O)=O)nn(CC(F)(F)F)c23)c([C@H](Cc2cc(F)cc(F)c2)NC(=O)Cn2nc(C(F)(F)F)c3c2C(F)(F)[C@@H]2C[C@H]32)n1)S(C)(=O)=O"
Output: 96.2

###

Test: PK of compound of Formula (Ia) after single subcutaneous dose of solution formulations in beagle dogs
Format: in vivo
Conditions: male, beagle, dog, plasma, sc, 12 mg/kg, beagle dogs, SC 12 mg/kg, 500 mg/mL solution X (5.00% ethanol, 1.91% poloxamer 188), 3360 h, Mean n = 3
valueKind: concentration at 3360 h (nM)
Just the number in nM, nothing appended.

Input: Need concentration at 3360 h, item "CC(C)(C#Cc1ccc(-c2ccc(Cl)c3c(NS(C)(=O)=O)nn(CC(F)(F)F)c23)c([C@H](Cc2cc(F)cc(F)c2)NC(=O)Cn2nc(C(F)(F)F)c3c2C(F)(F)[C@@H]2C[C@H]32)n1)S(C)(=O)=O"
Output: 9.6

###

Test: PK of compound of Formula (Ia) after single subcutaneous dose of solution formulations in Wistar Han rats
Type: in vivo
Conditions: male, Wistar Han, rat, plasma, sc, 50 mg/kg, 2016 h; individual rats; SC 50 mg/kg; solution S, 500 mg/mL
valueKind: concentration at 2016 h (nM)
Just the number in nM, nothing appended.

Input: Need concentration at 2016 h, item CC(C)(C#Cc1ccc(-c2ccc(Cl)c3c(NS(C)(=O)=O)nn(CC(F)(F)F)c23)c([C@H](Cc2cc(F)cc(F)c2)NC(=O)Cn2nc(C(F)(F)F)c3c2C(F)(F)[C@@H]2C[C@H]32)n1)S(C)(=O)=O [compound of Formula (Ia)]
Output: 221

###

Experiment: PK of compound of Formula (Ia) after single subcutaneous dose of solution formulations in Wistar Han rats
Type: in vivo
Details: male, Wistar Han, rat, plasma, sc, 50 mg/kg, Wistar Han rats, SC 50 mg/kg, 500 mg/mL solution X (5.00% ethanol, 1.91% poloxamer 188), 4032 h, animals #1-#3
valueKind: concentration at 4032 h (nM)
Just the number in nM, nothing appended.

Input: Need concentration at 4032 h, item CC(C)(C#Cc1ccc(-c2ccc(Cl)c3c(NS(C)(=O)=O)nn(CC(F)(F)F)c23)c([C@H](Cc2cc(F)cc(F)c2)NC(=O)Cn2nc(C(F)(F)F)c3c2C(F)(F)[C@@H]2C[C@H]32)n1)S(C)(=O)=O [compound of Formula (Ia)]
Output: 97.5

###

Test: PK of compound of Formula (Ia) after single subcutaneous dose of solution formulations in Wistar Han rats
Format: in vivo
Conditions: male, Wistar Han, rat, plasma, sc, 50 mg/kg, Wistar Han rats, SC 50 mg/kg, 400 mg/mL solution AA (6.25% poloxamer 188), 3360 h, Mean n = 4
valueKind: concentration at 3360 h

Input: Need concentration at 3360 h, item "CC(C)(C#Cc1ccc(-c2ccc(Cl)c3c(NS(C)(=O)=O)nn(CC(F)(F)F)c23)c([C@H](Cc2cc(F)cc(F)c2)NC(=O)Cn2nc(C(F)(F)F)c3c2C(F)(F)[C@@H]2C[C@H]32)n1)S(C)(=O)=O"
Output: 64.1 nM

###

Assay: PK of compound of Formula (Ia) after single subcutaneous dose of solution formulations in Wistar Han rats
Format: in vivo
Settings: male, Wistar Han, rat, plasma, sc, 50 mg/kg, Wistar Han rats, SC 50 mg/kg, 500 mg/mL solution X (5.00% ethanol, 1.91% poloxamer 188), 3.00 h, animals #1-#3
valueKind: concentration at 3 h (nM)
Just the number in nM, nothing appended.

Input: Need concentration at 3 h, item "CC(C)(C#Cc1ccc(-c2ccc(Cl)c3c(NS(C)(=O)=O)nn(CC(F)(F)F)c23)c([C@H](Cc2cc(F)cc(F)c2)NC(=O)Cn2nc(C(F)(F)F)c3c2C(F)(F)[C@@H]2C[C@H]32)n1)S(C)(=O)=O"
Output: 89

###

Experiment: PK of compound of Formula (Ia) after single subcutaneous dose of solution formulations in Wistar Han rats
Format: in vivo
Settings: male, Wistar Han, rat, plasma, sc, 50 mg/kg, Wistar Han rats, SC 50 mg/kg, 400 mg/mL solution W (5.00% ethanol, 1.57% poloxamer 188), 1680 h, Mean n = 3
valueKind: concentration at 1680 h (nM)
Just the number in nM, nothing appended.

Input: Need concentration at 1680 h, item "CC(C)(C#Cc1ccc(-c2ccc(Cl)c3c(NS(C)(=O)=O)nn(CC(F)(F)F)c23)c([C@H](Cc2cc(F)cc(F)c2)NC(=O)Cn2nc(C(F)(F)F)c3c2C(F)(F)[C@@H]2C[C@H]32)n1)S(C)(=O)=O"
Output: 261

###

Assay: PK of compound of Formula (Ia) after single subcutaneous dose of solution formulations in beagle dogs
Type: in vivo
Details: male, beagle, dog, plasma, sc, 12 mg/kg, beagle dogs, SC 12 mg/kg, 400 mg/mL solution Z (3.13% poloxamer 188), 2688 h, Mean n = 3
valueKind: concentration at 2688 h (nM)
Just the number in nM, nothing appended.

Input: Need concentration at 2688 h, item "CC(C)(C#Cc1ccc(-c2ccc(Cl)c3c(NS(C)(=O)=O)nn(CC(F)(F)F)c23)c([C@H](Cc2cc(F)cc(F)c2)NC(=O)Cn2nc(C(F)(F)F)c3c2C(F)(F)[C@@H]2C[C@H]32)n1)S(C)(=O)=O"
Output: 6.06

###

Experiment: PK of compound of Formula (Ia) after single subcutaneous dose of solution formulations in Wistar Han rats
Type: in vivo
Details: male, Wistar Han, rat, plasma, sc, 50 mg/kg, Wistar Han rats, SC 50 mg/kg, 400 mg/mL solution Z (3.13% poloxamer 188), 3360 h, Mean (#2 NS)
Experimental: Formulations containing the compound of Formula (Ia), or a pharmaceutically acceptable salt thereof, were prepared as solutions and optionally administered subcutaneously or intramuscularly to rats, rabbits, and/or dogs. A solution of about 400 mg/mL of the compound of Formula (Ia) having 19.14 w/w % water, 40.66 w/w % PEG 300, 35.20 w/w % of a sodium salt of a compound of Formula (Ia), and 5.00% ethanol was prepared. […]
valueKind: concentration at 3360 h (nM)
Just the number in nM, nothing appended.

Input: Need concentration at 3360 h, item "CC(C)(C#Cc1ccc(-c2ccc(Cl)c3c(NS(C)(=O)=O)nn(CC(F)(F)F)c23)c([C@H](Cc2cc(F)cc(F)c2)NC(=O)Cn2nc(C(F)(F)F)c3c2C(F)(F)[C@@H]2C[C@H]32)n1)S(C)(=O)=O"
Output: 133

###

Assay: PK of compound of Formula (Ia) after single subcutaneous dose of solution formulations in beagle dogs
Assay type: in vivo
Conditions: male, beagle, dog, plasma, sc, 12 mg/kg, beagle dogs, SC 12 mg/kg, 400 mg/mL solution W (5.00% ethanol, 1.57% poloxamer 188), 2016 h, Mean n = 3
valueKind: concentration at 2016 h (nM)
Just the number in nM, nothing appended.

Input: Need concentration at 2016 h, item CC(C)(C#Cc1ccc(-c2ccc(Cl)c3c(NS(C)(=O)=O)nn(CC(F)(F)F)c23)c([C@H](Cc2cc(F)cc(F)c2)NC(=O)Cn2nc(C(F)(F)F)c3c2C(F)(F)[C@@H]2C[C@H]32)n1)S(C)(=O)=O [compound of Formula (Ia)]
Output: 35.3
